Data origin: patent US20250376529A1

# Rhesus GIPR CAMP Assay (Conc. mAb @ 60% Inhibition in nM) per entry
Target: T1, Rhesus GIPR (rhesus, UniProt F7E1R9 22-466)
T1 sequence: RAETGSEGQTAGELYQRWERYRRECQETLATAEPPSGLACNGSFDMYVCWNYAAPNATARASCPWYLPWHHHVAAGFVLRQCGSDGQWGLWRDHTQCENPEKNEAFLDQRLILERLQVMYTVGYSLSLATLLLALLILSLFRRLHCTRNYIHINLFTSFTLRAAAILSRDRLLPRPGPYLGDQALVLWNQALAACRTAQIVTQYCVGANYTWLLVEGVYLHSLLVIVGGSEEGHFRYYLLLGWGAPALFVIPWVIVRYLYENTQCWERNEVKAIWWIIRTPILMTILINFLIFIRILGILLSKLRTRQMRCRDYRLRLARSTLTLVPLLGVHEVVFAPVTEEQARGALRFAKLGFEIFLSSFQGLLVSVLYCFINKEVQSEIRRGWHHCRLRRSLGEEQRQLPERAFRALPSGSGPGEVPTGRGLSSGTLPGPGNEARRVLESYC
Assay: cell-based or functional assay
PROPERTY_NAME: Rhesus GIPR CAMP Assay (Conc. mAb @ 60% Inhibition in nM)

BINDER	MEAS_VALUE
4H9.004 (antibody, human IgG1, kappa, N297G, V domains shown) VH: QVQLVESGGGVVQPGRSLRLSCAASGFTFSYFGMHWVRQAPGKGLEWVAVIWYDGSNKYYADSVKGRFTISRDNSKNTLYLQMNSLRAEDTAVYYCARDGTIFGVLLGDYWGQGTLVTVSS VL: DIQMTQSPSSLSASVGDRVTITCRASQGIRNELGWYQQKPGKAPKRLIYGASSLQSGVPSRFSGSGSGTEFTLTISSLQPEDFVTYYCLQHNSYPFTFGPGTKVDVKR	0.43 nM
12H11.006 (antibody, human IgG1, kappa, N297G, V domains shown) VH: QVPLVQSGAEVKKPGASVKVSCKASGYTFTGYYIHWVRQAPGQGLEWMGWISPNNGDTNYAQKFQDRVTMTRDTSISTAYMELSRLRSDDTAVYYCAREATIFGMLIVPFDYWGQGTLVTVSS VL: DIVMTQSPDSLSVSLGERATINCKSSQSVLSSSNNKNYLAWYQQKPGQPPNLLIYWTSTRDSGVPDRFSGSGSGTDFTLTINSLQAEDVAVYYCQQYYRTPWTFGQGTKVEIKR	0.59 nM
